Target: UniProt P43116
Assay: hEP2 b-arrestin assay (PathHunter HEK 293 PTGER2 b-arrestin cells)
Assay type: cell-based
Conditions: hEP2 b-arrestin assay (values without asterisk)
Rule: IC50 below 5 nM gives t, anything at or above gives f.

{"columns": ["chemicalSmiles", "category"],
 "data": [
  ["CCCSc1cc(-c2cc(NCCn3c(C#N)cc4c(OC)cc(F)cc43)ncn2)ccc1C(=O)O", "f"],
  ["COc1ccc(F)c2c1cc(C#N)n2CCNc1cc(-c2ccc(-c3cn(C)c(C)n3)cc2)ncn1", "f"],
  ["CCOc1cc(-c2cc(NCCn3c(C)cc4c(OC)ccc(F)c43)ncn2)ccc1C(=O)CO", "f"],
  ["COc1ccc(F)c2c1cc(C#N)n2CCNc1cc(-c2ccc(C(=O)O)c(CC(C)C)c2)ncn1", "f"],
  ["CCOc1cc(-c2cc(NCCn3c(C#N)cc4c(OC)cc(F)c(F)c43)ncn2)ccc1NCC(=O)O", "f"],
  ["COc1ccc(F)c2c1cc(C#N)n2CCNc1cc(-c2ccc3c(c2)CNC(=O)N3)ncn1", "f"],
  ["CCNc1csc(-c2cc(NCCn3c(C)cc4c(OC)cc(F)cc43)ncn2)c1", "f"],
  ["CCOc1cc(-c2cc(NCCn3c(C#N)cc4c(OC)ccc(F)c43)ncn2)ccc1C(=O)O", "f"],
  ["COc1ccc(F)c2c1cc(C#N)n2CCNc1cc(-c2c[nH]c3ncccc23)ncn1", "t"],
  ["CCOc1cc(-c2cc(NCCn3c(C#N)cc4c(OC)cccc43)ncn2)ccc1NCC(=O)O", "f"]
]}

Prompt: Problem: For the molecule COc1ccc(F)c2c1cc(C)n2CCNc1cc(-c2ccc(O)c(OC(F)(F)F)c2)ncn1 , is IC50 under 5 nM?
Completion: t

Prompt: Problem: For the molecule COC(=O)c1ccc2[nH]c(-c3cc(NCCn4c(C#N)cc5c(OC)ccc(F)c54)ncn3)cc2c1 , is IC50 under 5 nM?
Completion: t

Prompt: Problem: For the molecule COc1ccc(F)c2c1cc(C#N)n2CCNc1cc(-c2ccc3cc[nH]c3c2)ncn1 , is IC50 under 5 nM?
Completion: f

Prompt: Problem: For the molecule CCOc1cc(-c2cc(NCCn3c(C#N)cc4c(OC)ccc(F)c43)ncn2)sc1C(=O)NS(=O)(=O)CC , is IC50 under 5 nM?
Completion: t

====

Readings of IC50 for the listed molecules
Molecular target: PTRGER4 (EP4) (Homo sapiens (Human))
Sequence (P35408 whole entry, looked up): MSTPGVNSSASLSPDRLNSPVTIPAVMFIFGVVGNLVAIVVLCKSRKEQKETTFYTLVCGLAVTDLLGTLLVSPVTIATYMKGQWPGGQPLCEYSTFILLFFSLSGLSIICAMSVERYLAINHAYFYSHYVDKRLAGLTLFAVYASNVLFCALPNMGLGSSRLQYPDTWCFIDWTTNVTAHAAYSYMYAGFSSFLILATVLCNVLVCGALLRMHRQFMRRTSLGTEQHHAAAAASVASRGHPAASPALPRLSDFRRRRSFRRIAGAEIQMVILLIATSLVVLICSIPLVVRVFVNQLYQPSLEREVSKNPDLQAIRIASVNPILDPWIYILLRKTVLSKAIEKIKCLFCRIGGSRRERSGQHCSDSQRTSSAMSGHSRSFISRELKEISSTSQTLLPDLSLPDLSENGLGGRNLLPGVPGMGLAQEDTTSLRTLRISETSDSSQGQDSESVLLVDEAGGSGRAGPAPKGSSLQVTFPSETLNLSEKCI
Test: hEP4 b-arrestin assay (PathHunter HEK 293 PTGER4 b-arrestin cells)
Assay type: cell-based
Conditions: antagonistic activity on hEP4; mean where measured multiple times
Kindly answer with a numeric value in nM, unit omitted.

Worked cases, IC50 given:
{"columns": ["chemicalSmiles", "IC50 (nM)"],
 "data": [
  ["CCOc1cc(-c2cc(NCCn3c(C)cc4c(OC)ccc(F)c43)ncn2)sc1C(=O)O", 10],
  ["COc1cccc2c1cc(C)n2CCNc1cc(-c2ccc3c(c2)CCN3)ncn1", 144],
  ["CSc1cc(-c2cc(NCCn3c(C)cc4c(C)ccc(Cl)c43)ncn2)cc(Cl)c1C(=O)O", 458],
  ["COc1cccc2c1cc(C)n2CCNc1cc(-c2ccc(-c3c[nH]cn3)cc2)ncn1", 89]
]}

Per the record, Cc1nc(-c2ccc(-c3cc(NCCn4c(C)cc5c(C)ccc(F)c54)ncn3)cc2)cs1 has IC50 of 534

====

Readings of IC50 for the listed compounds
Target: EP4 (Homo sapiens (Human), UniProt P35408)
Sequence (P35408 whole entry): as the sequence (P35408 whole entry, looked up) above
Assay: hEP4 cAMP assay (BT549 breast cancer cells, HTRF cAMP)
Format: cell-based
Conditions: antagonistic activity; mean values where measured multiple times
Value and unit, in that order.

Worked cases, IC50 given:
{"columns": ["compound", "testValue"],
 "data": [
  ["CCCOc1cc(-c2cc(NCCn3c(C)cc4c(OC)ccc(Cl)c43)ncn2)ccc1C(=O)O [compound 495]", "350 nM"],
  ["CCNc1cc(-c2cc(NCCn3c(C)cc4c(OC)cccc43)ncn2)cc(F)c1C(=O)O [compound 398]", "178 nM"],
  ["CCOc1cc(-c2cc(NCCn3c(Cl)cc4c(Cl)ccc(F)c43)ncn2)ccc1C(=O)O [Example 778]", "175 nM"]
]}

Per the record, COc1cc(F)cc2c1cc(C)n2CCNc1cc(-c2ccc(-c3cc(N(C)C)ncn3)cc2)ncn1 [Example 763] has IC50 of 139 nM

Per the record, COc1ccc(Cl)c2c1cc(C)n2CCNc1cc(-c2ccc(C(=O)O)c(OC(F)F)c2)ncn1 [compound 631] has IC50 of 320 nM

Per the record, CCCc1cc(-c2cc(NCCn3c(C)cc4c(OC)ccc(Cl)c43)ncn2)cc(F)c1C(=O)O [compound 512] has IC50 of 253 nM

Per the record, Cc1nc(-c2ccc(-c3cc(NCCn4c(C)cc5c(C)cc(F)c(F)c54)ncn3)cc2)c[nH]1 [compound 575] has IC50 of 52 nM

Per the record, CCCc1cc(-c2cc(NCCn3c(C)cc4cc(C)cc(F)c43)ncn2)cc(F)c1C(=O)O [compound 417] has IC50 of 396 nM

====

Target: PTGER2 (EP2) (Homo sapiens (Human), UniProt P43116)
Sequence (P43116 whole entry): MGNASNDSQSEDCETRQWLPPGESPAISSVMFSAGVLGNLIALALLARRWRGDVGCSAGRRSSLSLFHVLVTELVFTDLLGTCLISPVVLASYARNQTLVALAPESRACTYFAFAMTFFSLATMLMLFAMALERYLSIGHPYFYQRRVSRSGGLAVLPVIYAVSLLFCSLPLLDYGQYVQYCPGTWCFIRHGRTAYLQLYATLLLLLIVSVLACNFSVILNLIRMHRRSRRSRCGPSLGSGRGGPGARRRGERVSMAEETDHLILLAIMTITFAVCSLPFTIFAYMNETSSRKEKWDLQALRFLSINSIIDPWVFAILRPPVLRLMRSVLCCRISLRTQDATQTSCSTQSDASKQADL
Test: hEP2 b-arrestin assay (PathHunter HEK 293 PTGER2 b-arrestin cells)
Type: cell-based
Settings: antagonistic activity on hEP2; mean where measured multiple times
Readings of pIC50 for the listed molecules
Value format note: pIC50 is -log10 of concentration (mol/L); just state the number.

Worked cases, pIC50 given:
{"columns": ["molecule", "testValue"],
 "data": [
  ["COc1cc(F)c(F)c2c1cc(C)n2CCNc1cc(-c2ccc3cc[nH]c3c2)ncn1", 7.32],
  ["CCOc1cc(-c2cc(NCCn3c(C#N)cc4ccccc43)ncn2)ccc1C(=O)O", 8.15],
  ["CCCSc1cc(-c2cc(NCCn3c(C)cc4c(C)ccc(Cl)c43)ncn2)ccc1C(=O)O", 7.55],
  ["Cc1ccc(F)c2c1cc(C)n2CCNc1cc(-c2ccc3c(c2)C(C)NC3=O)ncn1 (racemic)", 7.77],
  ["Cc1cc(F)c(F)c2c1cc(C)n2CCNc1cc(-c2ccc3cc[nH]c3c2)ncn1", 6.67],
  ["Cc1ccc(F)c2c1cc(C)n2CCNc1cc(-c2ccc3c(c2)CN(C)C3=O)ncn1", 7.23],
  ["Cc1cccc2c1cc(C)n2CCNc1cc(-c2ccc(C(=O)O)c(CC(C)C)c2)ncn1", 7.96],
  ["CCOc1cc(-c2cc(NCCn3c(C)cc4c(Cl)ccc(Cl)c43)ncn2)ccc1C(=O)O", 8.10]
]}

Per the record, COc1cc(F)cc2c1cc(C)n2CCNc1cc(-c2ccc(-c3noc(=O)[nH]3)cc2)ncn1 has pIC50 of 7.36

Per the record, Cc1ccc(F)c2c1cc(C)n2CCNc1cc(-c2ccc(C3(C(=O)O)CC3)c(F)c2)ncn1 has pIC50 of 6.47

Per the record, CCOc1cc(-c2cc(NCCn3c(C)cc4c(Cl)cccc43)ncn2)sc1C(=O)O has pIC50 of 9.00

Per the record, CCNc1cc(-c2cc(NCCn3c(C)cc4cc(F)cc(F)c43)ncn2)ccc1C(=O)O has pIC50 of 8.22

Per the record, Cc1cc(F)cc2c1cc(C)n2CCNc1cc(-c2ccc3c(c2)CC(=O)N3)ncn1 has pIC50 of 7.01

Per the record, COc1ncc(-c2cc(NCCn3c(C)cc4c(OC)ccc(F)c43)ncn2)s1 has pIC50 of 7.00

Per the record, Cc1ccc(F)c2c1cc(C)n2CCNc1cc(-c2ccc(C(=O)O)c(C3CC3)c2)ncn1 has pIC50 of 7.57

Per the record, COc1ccc(F)c2c1cc(C)n2CCNc1cc(-c2cc(F)c(S(N)(=O)=O)c(F)c2)ncn1 has pIC50 of 7.47

====

Target: PTGER2 (EP2) (Homo sapiens (Human), UniProt P43116)
Assay: hEP2 b-arrestin assay (PathHunter HEK 293 PTGER2 b-arrestin cells)
Format: cell-based
Conditions: antagonistic activity on hEP2; mean where measured multiple times
Readings of log10 IC50 for the listed compounds
All values: base-10 log of IC50 in nM.

Worked cases, log10 IC50 given:
{"columns": ["compound", "testValue"],
 "data": [
  ["CCOc1cc(-c2cc(NCCn3c(C)cc4c(Cl)cc(Cl)cc43)ncn2)sc1C(=O)O", 0.70],
  ["COc1ccc(F)c2c1cc(C)n2CCNc1cc(-c2ccc(-c3ccn[nH]3)cc2)ncn1", 0.60]
]}

Per the record, COc1ccc(F)c2c1cc(C)n2CCNc1cc(-c2ccc(N3CCCC3=O)cc2)ncn1 has log10 IC50 of 2.53

Per the record, COc1ccc(F)c2c1cc(C)n2CCNc1cc(-c2ccc3[nH]c(=O)[nH]c3c2)ncn1 [compound 74] has log10 IC50 of 1.65

The reported numbers originate from patent US12011444B2.
